# credit: patent US20260015350A1

Molecular target: KRas^G12R (Homo sapiens, UniProt P01116, G12R)
Construct: Biotinylated KRas (corresponding to amino acids 1-169, produced at Accelegan Inc.); biotin (biotinylated); purchased Accelegan Inc
Sequence (P01116 1-169 isoform P01116-2 G12R): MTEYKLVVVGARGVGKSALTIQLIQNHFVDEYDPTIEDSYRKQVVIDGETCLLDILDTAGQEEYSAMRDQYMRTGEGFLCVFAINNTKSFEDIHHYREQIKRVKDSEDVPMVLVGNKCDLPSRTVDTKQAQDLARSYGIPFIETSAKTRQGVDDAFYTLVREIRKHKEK
Test: KRas binding assay (TR-FRET tracer displacement), KRas G12R
Listing: IC50 of selected compounds

Some compounds with recorded IC50:
CCc1c(F)ccc2cc(O)cc(-c3ncc4c(NCc5cc(C(=O)N(C)C)n(C(F)F)n5)nc(OC[C@@]56CCCN5C[C@H](F)C6)nc4c3F)c12 = 3 nM
CCc1c(F)ccc2cc(O)cc(-c3ncc4c(NCc5cc(C(=O)N(C)C)nn5[C@H]5C[C@@H](O)C5)nc(OC[C@@]56CCCN5C[C@H](F)C6)nc4c3F)c12 = 16 nM
C[C@@]1(O)CCCN(c2nc(OC[C@@]34CCCN3C[C@H](F)C4)nc3c(F)c(-c4ccc(F)c5sc(N)c(C#N)c45)ncc23)C1 = 85 nM
CCc1c(F)ccc2cc(O)cc(-c3ncc4c(NC5CCONC5)nc(OC[C@@]56CCCN5C[C@H](F)C6)nc4c3F)c12 (some centres unmarked) = 6 nM
CN(C)C(=O)c1cc2n(n1)CCCN(c1nc(OC[C@@]34CCCN3C[C@H](F)C4)nc3c(F)c(-c4c(C5CC5)c(Cl)cc5[nH]ncc45)ncc13)C2 = 8 nM
CCc1c(F)ccc2cc(O)cc(-c3ncc4c(N5CCC[C@@](C)(O)C5)nc(OCC5(CN)CC5)nc4c3F)c12 = 9 nM
CCc1c(F)ccc2cc(O)cc(-c3ncc4c(N5CCCC6(C[C@H](O)[C@H](O)CO6)C5)nc(OC[C@@]56CCCN5C[C@H](F)C6)nc4c3F)c12 (some centres unmarked) = 195 nM
CCc1c(F)ccc2cc(O)cc(-c3ncc4c(N5C[C@H]6CC[C@@H](C5)[C@@H]6O)nc(OC[C@@]56CCCN5C[C@H](F)C6)nc4c3F)c12 = < 2 nM
CCc1c(F)ccc2cc(O)cc(-c3ncc4c(N5CCCO[C@@H](CCO)C5)nc(OC[C@@]56CCCN5C[C@H](F)C6)nc4c3F)c12 = 2 nM
CCCCCCCCCCN(C)C(=O)OC[C@@H]1CC[C@@]2(COc3nc(N4CCC[C@@](C)(O)C4)c4cnc(-c5cc(O)cc6ccc(F)c(CC)c56)c(F)c4n3)CCCN12 = 177 nM

[Q] Item under review: CCc1c(F)ccc2cc(O)cc(-c3ncc4c(N5C[C@H](F)C[C@@H](OC)C5)nc(OC[C@@]56CCCN5C[C@H](F)C6)nc4c3F)c12 . Reported IC50?
[A] 4 nM

[Q] Item CCc1c(F)ccc2cc(O)cc(-c3ncc4c(N5CCCn6nc(S(=O)(=O)NC)cc6C5)nc(OC[C@@]56CCCN5C[C@H](F)C6)nc4c3F)c12 has what recorded IC50?
[A] 5 nM

[Q] Find the recorded IC50 belonging to CCc1c(F)ccc2cc(O)cc(-c3ncc4c(N5C[C@@H]6[C@@H](CC#N)NC(=O)[C@@H]6C5)nc(OC[C@@]56CCCN5C[C@H](F)C6)nc4c3F)c12 and report it.
[A] 71 nM

[Q] Report IC50 for CCc1c(F)ccc2cc(O)cc(-c3ncc4c(N5CCC6(CC5)CC[S+]6[O-])nc(OC[C@@]56CCCN5C[C@H](F)C6)nc4c3F)c12 (some centres unmarked) please.
[A] 453 nM

[Q] Give its IC50 value. Item: C[C@@]1(O)CCCN(c2nc(OC[C@@]34CCCN3C[C@H](F)C4)nc3c(F)c(-c4c(C5CC5)c(Cl)cc5[nH]ncc45)ncc23)C1
[A] 12 nM

[Q] Requested read-out: IC50. Entry: CCc1c(F)ccc2cc(O)cc(-c3ncc4c(NCc5cn(C(=O)N(C)C)nc5N)nc(OC[C@@]56CCCN5C[C@H](F)C6)nc4c3F)c12
[A] 2 nM

[Q] Entry CCc1c(F)ccc2cc(O)cc(-c3ncc4c(N5CC6CCC(C5)C6C(=O)NC)nc(OC[C@@]56CCCN5C[C@H](F)C6)nc4c3F)c12 (some centres unmarked) has what IC50?
[A] 10 nM
